Assay: RP, 50 × 2.1 mm, 1.7 µm, 0.5 mL/min, estimated dead time 0.22 min; A: 98% water + 2% acetonitrile + 0.1% formic acid, pH 3; B: 2% water + 98% acetonitrile + 0.1% formic acid, pH 3; gradient (min/%B) 0/0 0.5/0 4/60 8/100 9/100 9.2/0 10/0
Conditions: stereoisomer not certain
Give measured LC retention time for each item. Keep answers brief.
Give bare numbers, in min.

| compound | readout number |
| --- | --- |
| CCCCCCCC(=O)O[C@H](CC(=O)[O-])C[N+](C)(C)C | 5.12 |
| CCCCCCCCCCCCCCCCOCC(O)COP(=O)([O-])OCC[N+](C)(C)C (centres undefined) | 6.42 |
| NC(N)=NCCC(=O)O | 0.883 |

Batch request: LC retention time per item, same order as input.
1. CCCCCCCCC=CCCCCCCCCCC(=O)OCC(O)COP(=O)([O-])OCC[N+](C)(C)C (centres undefined)
2. CCCCCCCCCCCCCC=CC(O)C(COP(=O)(O)O)NC(=O)CCCCCCCCCCC (centres undefined)
3. CC(CCC(=O)NCCS(=O)(=O)O)C1CCC2C3C(O)CC4CC(O)CCC4(C)C3CCC12C (centres undefined)
4. CC(=O)C(CCCCN)NS(=O)(=O)c1ccc(C)cc1 (centres undefined)
5. C=CC1=C(C)C(=Cc2[nH]c(Cc3[nH]c(C=C4NC(=O)C(C)=C4C=C)c(C)c3CCC(=O)O)c(CCC(=O)O)c2C)NC1=O [4E,15Z-bilirubin IXa]
6. CC(CCC(=O)NCC(=O)O)C1CCC2C3C(O)CC4CC(O)CCC4(C)C3CCC12C (centres undefined)

[6.88, 7.37, 3.89, 7.42, 7.62, 4.79]
